Data origin, for the record: patent US20170233495A1

Molecular target: rat proMMP9 (rat, UniProt P50282 20-708)
Sequence (P50282 20-708): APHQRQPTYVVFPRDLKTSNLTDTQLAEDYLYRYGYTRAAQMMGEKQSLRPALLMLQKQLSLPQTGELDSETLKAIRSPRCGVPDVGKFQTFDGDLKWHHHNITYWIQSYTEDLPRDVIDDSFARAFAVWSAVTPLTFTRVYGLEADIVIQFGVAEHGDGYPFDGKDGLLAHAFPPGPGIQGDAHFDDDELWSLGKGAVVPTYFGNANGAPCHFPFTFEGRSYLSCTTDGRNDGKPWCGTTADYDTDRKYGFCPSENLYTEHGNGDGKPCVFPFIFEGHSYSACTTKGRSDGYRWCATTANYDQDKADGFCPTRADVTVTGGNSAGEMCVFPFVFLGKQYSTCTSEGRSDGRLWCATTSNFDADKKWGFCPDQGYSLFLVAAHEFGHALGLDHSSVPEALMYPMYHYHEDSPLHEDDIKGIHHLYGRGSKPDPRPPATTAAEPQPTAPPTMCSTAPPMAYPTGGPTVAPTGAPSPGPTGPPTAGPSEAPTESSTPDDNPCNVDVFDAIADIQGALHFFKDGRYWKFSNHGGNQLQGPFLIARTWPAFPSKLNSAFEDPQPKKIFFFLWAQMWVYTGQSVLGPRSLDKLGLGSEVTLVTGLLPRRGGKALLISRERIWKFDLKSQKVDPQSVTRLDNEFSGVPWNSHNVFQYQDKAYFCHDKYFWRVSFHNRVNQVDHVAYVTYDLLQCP
Assay: cell-based or functional assay
IC50 (nM), MMP3/MMP9 gelatin assay under 5 nM gets YES, anything at or over 5 nM gets NO.

Worked examples follow.
binder: F20-VH-GL1-V1-V9-V14/B08-VL-GL6c (antibody, human IgG4 S228P, V domains shown) VH: EVQLVESGGGLVQPGRSLRLSCAASGFTFNDYPMHWVRQAPGKGLEWVSGISSQSGSVGYAESVKGRFTISRDNAKNSLYLQMNSLRAEDTALYYCARDKIYYGSGSYDFYYYYGIDVWGQGTTVTVSS VL: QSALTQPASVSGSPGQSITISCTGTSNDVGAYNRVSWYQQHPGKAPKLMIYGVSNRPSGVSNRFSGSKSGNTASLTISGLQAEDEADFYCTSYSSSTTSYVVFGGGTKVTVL
assigned label: NO
//
binder: F20-VH-GL1-V1-V9/B08-VL-GL6c (antibody, human IgG4 S228P, V domains shown) VH: EVQLVESGGGLVQPGRSLRLSCAASGFTFNDYPMHWVRQAPGKGLEWVSGISSQSGSVGYAESVKGRFTISRDNAKNSLYLQMNSLRAEDTALYYCARDKIYYGSGSYDFYYYYGMDVWGQGTTVTVSS VL: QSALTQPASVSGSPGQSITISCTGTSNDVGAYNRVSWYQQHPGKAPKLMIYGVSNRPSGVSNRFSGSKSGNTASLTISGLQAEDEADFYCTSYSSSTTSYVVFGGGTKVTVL
assigned label: NO
//
binder: F20-VH-GL1-V4-V9-V14/B03-VL-GL1c (antibody, human IgG4 S228P, V domains shown) VH: EVQLVESGGGLVQPGRSLRLSCAASGFTFNDYPMHWVRQAPGKGLEWVSGISSRSGSVGYAESVKGRFTISRDNAKNSLYLQMNSLRAEDTALYYCARDKIYYGSGSYDFYYYYGIDVWGQGTTVTVSS VL: SSELTQDPAVSVALGQTVRITCQGDSLRSYYASWYQQKPGQAPVVVIYGKNNRPSGIPDRFSGSSSGNTVSLTITGAQAEDEADYYCQSRDNIGNHRVVLFGGGTKLTVL
assigned label: YES

Turning now to a further binder:
-- ask Could you please tell me whether IC50 (nM), MMP3/MMP9 gelatin assay recorded for F20-VH-GL1-V4-V9/B08-VL-GL6c (antibody, human IgG4 S228P, V domains shown, The light chain constant region is not tied to it; also called F20-VH/B08-VLc variant; F20-VH/B08-VLc) VH: EVQLVESGGGLVQPGRSLRLSCAASGFTFNDYPMHWVRQAPGKGLEWVSGISSRSGSVGYAESVKGRFTISRDNAKNSLYLQMNSLRAEDTALYYCARDKIYYGSGSYDFYYYYGMDVWGQGTTVTVSS VL: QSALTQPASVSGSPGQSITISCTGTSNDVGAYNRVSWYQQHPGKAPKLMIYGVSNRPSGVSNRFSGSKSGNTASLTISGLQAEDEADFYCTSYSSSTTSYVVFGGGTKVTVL is less than 5 nM?
-- reply YES
